Tested on: HepG2
Assay: cell viability relative to DMSO; higher = less toxic
Conditions: 72 h; 1 nM
measured-metric: cell viability (%)
Respond numerically; units are % and should not be typed.

Noted cell viability for CC(C)NCC(O)c1ccc(N)c(C#N)c1 (stereo not given) , tested on HepG2: 110

Noted cell viability for CC/C=C\C/C=C\C/C=C\C/C=C\C/C=C\C/C=C\CCC(=O)OCC , tested on HepG2: 100

Noted cell viability for CC(=O)N[C@@H](CSC/C=C(\C)CC/C=C(\C)CCC=C(C)C)C(=O)O , tested on HepG2: 90.9

Noted cell viability for O=C1c2cccc(O)c2C(=O)c2c(O)cc(CO)cc21 , tested on HepG2: 95

Noted cell viability for Cc1noc(C)c1-c1ccc(-c2cc(C(N)=O)c(NC(N)=O)s2)c(O[C@H]2CCNC2)c1 , tested on HepG2: 114
